test system: 276233-004-R-J1-PDC complex spheroid viability; experiment: Anticancer human tumor 276233-004-R-J1-PDC patient-derived colon adenocarcinoma cell line growth inhibition [GQUAD]; details: second compound 1 µM; first compound 0.316 µM; stronger effect = lower value;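 also: spheroids exposed to drugs for seven days; 100% = DMSO vehicle control viability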
MEASURE: viability, T/C (%)
Give a bare numeral; the unit % is implied.

Reference set (2 entries):
- Cn1ncnc1[C@H]1c2n[nH]c(=O)c3cc(F)cc(c23)N[C@@H]1c1ccc(F)cc1 + Cc1cnc(CNC(=O)c2c(=O)c3ccc(N4CCCN(C)CC4)nc3n3c2sc2ccccc23)cn1: 69.2
- C=CC(=O)N1CCN(c2nc(=O)n(-c3c(C)ccnc3C(C)C)c3nc(-c4c(O)cccc4F)c(F)cc23)C(C)C1 (stereo not drawn) + CN(C)c1ccc(Nc2c3ccc(NC(=O)CCN4CCCC4)cc3nc3cc(NC(=O)CCN4CCCC4)ccc23)cc1: 62.2

Lab note: next compound to report on.
Briefly, viability, T/C measured for C=CCn1c(=O)c2cnc(Nc3ccc(N4CCN(C)CC4)cc3)nc2n1-c1cccc(C(C)(C)O)n1 + Cc1cnc(CNC(=O)c2c(=O)c3ccc(N4CCCN(C)CC4)nc3n3c2sc2ccccc23)cn1 : 76.5

The values you see were collected from PubChem BioAssay AID2060496.
